assay: Antiproliferative activity against mouse BA/F3 cells after 3 days by MTS assay
measurement_parameters: Mus musculus, BaF3, 72 h
pIC50: −log10 of the molar value.
Give measured pIC50 for each item. Keep answers brief.

Ask: Give the reported pIC50 for this compound. CNc1ncnc2c1ncn2/C=C/c1cc(NC(=O)c2cccc(C(F)(F)F)c2)ccc1C
Result: < 5.00

Ask: Give the reported pIC50 for this compound. Cc1ccc(C(=O)Nc2cc(C(C)(C)C)on2)cc1/C=C/n1cnc2c(NC3CC3)ncnc21
Result: < 5.00

Ask: Give the reported pIC50 for this compound. Cc1ccc(NC(=O)c2cccc(C(F)(F)F)c2)cc1/C=C/n1cnc2c(Nc3cccnc3)ncnc21
Result: < 5.00
